biological target: T1, monovalent hVISTA-ECD (human VISTA extracellular domain with His tail) (human, UniProt Q9H7M9 33-193); test: SPR, pH 7.4
T1 construct: analyte flowed over captured antibody; also called huVISTA-His
T1 sequence (Q9H7M9 other isoform, or with tags, fused parts or gaps limits assumed): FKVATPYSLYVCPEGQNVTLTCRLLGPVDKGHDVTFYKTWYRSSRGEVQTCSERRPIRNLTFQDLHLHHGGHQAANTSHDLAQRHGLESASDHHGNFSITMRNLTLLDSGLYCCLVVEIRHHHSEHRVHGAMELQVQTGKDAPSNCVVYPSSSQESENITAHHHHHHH
measuredAttribute: kd improvement vs parent (fold)
Respond with the bare value in fold.

Recorded kd improvement vs parent, per entry:
P1-063153 (41F11_HC_mutant: D31E/Y50W/S55E/Y100E) (antibody, V domains shown, Kabat positions; also called P1-063153-5) VH: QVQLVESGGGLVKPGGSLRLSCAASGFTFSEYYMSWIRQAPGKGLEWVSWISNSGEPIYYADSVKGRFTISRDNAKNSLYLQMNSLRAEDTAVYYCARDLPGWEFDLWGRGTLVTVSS VL: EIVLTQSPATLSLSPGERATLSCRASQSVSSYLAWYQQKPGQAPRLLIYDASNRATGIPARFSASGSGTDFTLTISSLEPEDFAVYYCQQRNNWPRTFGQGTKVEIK; 7.4
P1-064391 (41F11_HC_Mutant: D31E/Y50W/S55E/Y100E 41F11_LC_Mutant: V29D/A64G/R91T) (antibody, V domains shown, Kabat positions; also called P1-064391-1) VH: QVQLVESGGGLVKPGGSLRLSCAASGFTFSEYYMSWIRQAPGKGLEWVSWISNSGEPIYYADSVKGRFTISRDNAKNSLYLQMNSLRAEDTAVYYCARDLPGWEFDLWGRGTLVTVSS VL: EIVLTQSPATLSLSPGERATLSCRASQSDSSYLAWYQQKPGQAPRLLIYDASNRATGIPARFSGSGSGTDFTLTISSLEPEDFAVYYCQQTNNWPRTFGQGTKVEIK; 0.1

Next item in the queue.
Reported kd improvement vs parent of P1-065333 (41F11_VH_T28P/Y50W/S55E/L96E/Y100E VK_A64G) (antibody, human IgG1, kappa, V domains shown, IgG1.3; also called P1-065333-1; VISTA.4 pH-independent progeny) VH: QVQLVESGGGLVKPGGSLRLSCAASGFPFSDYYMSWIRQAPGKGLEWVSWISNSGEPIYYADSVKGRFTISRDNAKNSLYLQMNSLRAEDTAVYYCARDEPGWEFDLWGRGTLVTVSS VL: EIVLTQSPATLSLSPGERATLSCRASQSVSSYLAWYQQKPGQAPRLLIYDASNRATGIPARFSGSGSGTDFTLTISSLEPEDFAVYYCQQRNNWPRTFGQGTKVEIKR : 1

Values from patent US20220073617A1
